From: patent US8969554B2

- Tested on: A. retroflexus
- run.description: Herbicidal activity by field soil treatment (Test example 2)
- Type: in vivo
- Parameters: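 index 0 to 10 in 10% steps of herbicidal effect with 10 meaning complete death and 0 below 10%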
- stated.conditions: 1000 g effective component per hectare, day 21 after the treatment
recorded.endpoint: herbicidal effect index, Amaranthus retroflexus

[[record]]
smiles_repr = "Cn1nc(C(=O)C2=C(O)CCCC2=O)c(=O)n(C)c1=O"
value_reported = 10

[[record]]
smiles_repr = "COc1cc(-n2c(=O)c(C(=O)C3=C(O)CCCC3=O)nn(C)c2=O)c(F)cc1Cl"
value_reported = 10

[[record]]
smiles_repr = "Cc1cccc(C)c1-n1c(=O)c(C(=O)C2=C(O)CCCC2=O)nn(C)c1=O"
value_reported = 10

[[record]]
smiles_repr = "CSc1c(Cl)cc(-n2c(=O)c(C(=O)C3=C(O)CCCC3=O)nn(C)c2=O)cc1Cl"
value_reported = 10

[[record]]
smiles_repr = "Cn1nc(C(=O)C2=C(O)CCCC2=O)c(=O)n(-c2ccccn2)c1=O"
value_reported = 9

[[record]]
smiles_repr = "COc1ccccc1-n1c(=O)c(C(=O)C2=C(O)CCCC2=O)nn(C)c1=O"
value_reported = 10

[[record]]
smiles_repr = "Cn1nc(C(=O)C2=C(O)CCCC2=O)c(=O)n(-c2c(F)cccc2F)c1=O"
value_reported = 10

[[record]]
smiles_repr = "Cn1nc(C(=O)C2=C(O)CCCC2=O)c(=O)n(-c2ccccc2)c1=S"
value_reported = 10

[[record]]
smiles_repr = "Cn1nc(C(=O)C2=C(O)CCCC2=O)c(=O)n(CS(C)(=O)=O)c1=O"
value_reported = 10

[[record]]
smiles_repr = "COc1ccc(Cl)cc1-n1c(=O)c(C(=O)C2=C(O)CCCC2=O)nn(C)c1=O"
value_reported = 10

[[record]]
smiles_repr = "Cn1nc(C(=O)C2=C(O)CCCC2=O)c(=O)n(-c2ccccc2C(F)(F)F)c1=O"
value_reported = 10

[[record]]
smiles_repr = "Cc1cccc(F)c1-n1c(=O)c(C(=O)C2=C(O)CCCC2=O)nn(C)c1=O"
value_reported = 10

[[record]]
smiles_repr = "COc1cc(-n2c(=O)c(C(=O)C3=C(O)CCCC3=O)nn(C)c2=O)ccc1Cl"
value_reported = 10

[[record]]
smiles_repr = "Cn1nc(C(=O)C2=C(O)CCCC2=O)c(=O)n(-c2ccc(Cl)cn2)c1=O"
value_reported = 10

[[record]]
smiles_repr = "CCOc1ccc(-n2c(=O)c(C(=O)C3=C(O)CCCC3=O)nn(C)c2=O)cc1"
value_reported = 10

[[record]]
smiles_repr = "Cc1cccc(-n2c(=O)c(C(=O)C3=C(O)CCCC3=O)nn(C)c2=O)n1"
value_reported = 10

[[record]]
smiles_repr = "Cc1ccc(-n2c(=O)c(C(=O)C3=C(O)CCCC3=O)nn(C)c2=O)c(F)c1"
value_reported = 10

[[record]]
smiles_repr = "CON=C(C)Cn1c(=O)c(C(=O)C2=C(O)CCCC2=O)nn(C)c1=O"
value_reported = 10


* * *

- Tested on: Echinochloa crus-galli
- run.description: Herbicidal activity by field soil treatment (Test example 2)
- Assay type: in vivo
- Set-up: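 index 0 to 10 in 10% steps of herbicidal effect with 10 meaning complete death and 0 below 10%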
- stated.conditions: 1000 g effective component per hectare, day 21 after the treatment
- Protocol: [table] Test for Determining Herbicidal Activity by Field Soil Treatment A 80 cm^2 wide plastic pot was filled with a field soil and seeds of each of Echinochloa crus-galli, foxtail, Indian millet, and A. retroflexus were sowed and then covered with soil. The wettable powder produced with reference to the Formulation example 1 was diluted water, and applied on the soil surface by using a small sprayer in an amount of 1000 liters per hectare so that the effective component is 1000 g per hectare. […]
Item-by-item account of herbicidal effect index, Echinochloa crus-galli
recorded.endpoint: herbicidal effect index, Echinochloa crus-galli

[[record]]
compound = "Cn1nc(C(=O)C2=C(O)CCCC2=O)c(=O)n(-c2ccccc2F)c1=O [I-54]"
assayed_system = "Echinochloa crus-galli"
value_reported = 10

[[record]]
compound = "Cn1nc(C(=O)C2=C(O)CCCC2=O)c(=O)n(CC(F)(F)F)c1=O [I-10]"
assayed_system = "Echinochloa crus-galli"
value_reported = 10

[[record]]
compound = "COc1cc(Cl)cc(-n2c(=O)c(C(=O)C3=C(O)CCCC3=O)nn(C)c2=O)c1 [I-120]"
assayed_system = "Echinochloa crus-galli"
value_reported = 8

[[record]]
compound = "Cn1nc(C(=O)C2=C(O)CCCC2=O)c(=O)n(C2CCCCC2)c1=O [I-19]"
assayed_system = "Echinochloa crus-galli"
value_reported = 8

[[record]]
compound = "CC(C)Cn1c(=O)c(C(=O)C2=C(O)CCCC2=O)nn(-c2ccccn2)c1=O [I-307]"
assayed_system = "Echinochloa crus-galli"
value_reported = 7

[[record]]
compound = "Cn1nc(C(=O)C2=C(O)CCCC2=O)c(=O)n(-c2cccs2)c1=O [I-198]"
assayed_system = "Echinochloa crus-galli"
value_reported = 7

[[record]]
compound = "Cn1nc(C(=O)C2=C(O)CCCC2=O)c(=O)n(-c2cccc(-c3ccccc3)c2)c1=O [I-270]"
assayed_system = "Echinochloa crus-galli"
value_reported = 8

[[record]]
compound = "Cc1cccc(OC(F)(F)F)c1-n1c(=O)c(C(=O)C2=C(O)CCCC2=O)nn(C)c1=O [I-285]"
assayed_system = "Echinochloa crus-galli"
value_reported = 10

[[record]]
compound = "Cc1cccc(-n2c(=O)c(C(=O)C3=C(O)CCCC3=O)nn(C)c2=O)c1C [I-89]"
assayed_system = "Echinochloa crus-galli"
value_reported = 9

